- System: LOU-NH91
- Procedure summary: relative viability (nuclei count vs DMSO), 5 days (fraction); higher = more cells survive
- Particulars: first compound 0.5 µM
Readout kind: relative viability
One number for each entry.

* CC1(C)CCC(c2ccc(Cl)cc2)=C(CN2CCN(c3ccc(C(=O)NS(=O)(=O)c4ccc(N[C@H](CCN5CCOCC5)CSc5ccccc5)c(S(=O)(=O)C(F)(F)F)c4)cc3)CC2)C1 [Navitoclax] + Nc1ncn([C@H]2C[C@H](O)[C@@H](CO)O2)c(=O)n1 [Decitabine] (partner 2 µM) | 0.391
* CC1(C)CCC(c2ccc(Cl)cc2)=C(CN2CCN(c3ccc(C(=O)NS(=O)(=O)c4ccc(N[C@H](CCN5CCOCC5)CSc5ccccc5)c(S(=O)(=O)C(F)(F)F)c4)cc3)CC2)C1 [Navitoclax] + Cc1nc(Nc2ncc(C(=O)Nc3c(C)cccc3Cl)s2)cc(N2CCN(CCO)CC2)n1 [Dasatinib] (partner 0.075 µM) | 0.377
* CC1(C)CCC(c2ccc(Cl)cc2)=C(CN2CCN(c3ccc(C(=O)NS(=O)(=O)c4ccc(N[C@H](CCN5CCOCC5)CSc5ccccc5)c(S(=O)(=O)C(F)(F)F)c4)cc3)CC2)C1 [Navitoclax] + O=C(CCCCCCC(=O)Nc1ccccc1)NO [Vorinostat] (partner 1 µM) | 0.437
* CC1(C)CCC(c2ccc(Cl)cc2)=C(CN2CCN(c3ccc(C(=O)NS(=O)(=O)c4ccc(N[C@H](CCN5CCOCC5)CSc5ccccc5)c(S(=O)(=O)C(F)(F)F)c4)cc3)CC2)C1 [Navitoclax] + Cc1nc(NC(=O)N2CCC[C@H]2C(N)=O)sc1-c1ccnc(C(C)(C)C(F)(F)F)c1 [Alpelisib] (partner 2 µM) | 0.645

Below: the item to evaluate.
Any idea what its relative viability is? The molecule is CC1(C)CCC(c2ccc(Cl)cc2)=C(CN2CCN(c3ccc(C(=O)NS(=O)(=O)c4ccc(N[C@H](CCN5CCOCC5)CSc5ccccc5)c(S(=O)(=O)C(F)(F)F)c4)cc3)CC2)C1 [Navitoclax] + CCNC(=O)c1noc(-c2cc(C(C)C)c(O)cc2O)c1-c1ccc(CN2CCOCC2)cc1 [Luminespib] (partner 0.01 µM)
0.275
